Test system: OVCAR-4 ovarian
Assay: NCI-60 one-dose screen, 48 h (100 = growth as untreated, 0 = no growth, -100 = all killed)
Settings: 10 µM unless noted
The panel holds about 83,000 compounds, 20% with a hit somewhere; the sample as a whole holds those more often.
Listed next: entries and their corresponding growth.
# output: bare number, implied unit %

Some solved entries appear below for comparison.
Nc1ncnc2c1N=C(c1ccc([N+](=O)[O-])cc1)CC(c1ccc3c(c1)OCO3)N2 (stereo not given) : 95.5
CC1=C(C(=O)OCc2ccccc2)C(c2ccc3c(c2)OCO3)n2c(nc3ccccc32)N1 (stereo not given) : 73.8
CC(C)=CC(=O)C1C(=O)c2ccccc2C1=O : 102
C[C@H]1c2ccccc2CN1CCCOc1cc2c(cc1OCC1CC1)C1(CCCC1)C(N)=N2 : 48.8

Input: Value wanted: growth (OVCAR-4 ovarian) of entry N/C(=N\c1nc2ccccc2s1)NC(=O)Nc1ccccc1
Output: 73.8

====

System: K-562 leukemia
Assay: NCI-60 one-dose screen, 48 h
Details: 10 µM unless noted
Compounds without any hit were thinned out: in the full panel of roughly 83,000, 20% have a hit. Active and inactive are the calls of the source. Rule for the calls: active = growth percent below 10; inactive = the rest.
Return exactly one item of true (1) (active), false (0) (inactive)

// below: answered compounds
C#CCOc1ccc(C2=NN(C)C3N=C(Cl)c4ncn(C)c4N23)cc1OCC#C (centres undefined) : false (0)
CNC1=C(Br)C(=O)c2c(C(=O)OC)c(C)nc(C)c2C1=O : false (0)
CCOC(=O)c1c(NC(=S)Nc2ccc([N+](=O)[O-])cc2)sc2c1CCCCC2 : false (0)
CCCC1Cc2cc(-n3nc(C)c4c3CC(C)(C)CC4=O)cc(NC3CCC(O)CC3)c2C(=O)N1 (centres undefined) : false (0)
C#CCOc1cc(/C=N/Nc2nc(-c3ccc(OC)cc3)cs2)ccc1O : false (0)

Input: Hello, I am checking results. What call was entered for CNC1=C([N+](=O)[O-])C(c2ccc(OC)cc2)C(C#N)=C(c2ccc[nH]2)O1 (centres undefined) ?
Output: false (0)

Input: Hello, I am checking results. What call was entered for Nc1ccc(Cl)c2c(=O)c3ccccc3[nH]c12 ?
Output: false (0)

Input: Hello, I am checking results. What call was entered for C(CCCSC1=NCCN1)CCSC1=NCCN1 ?
Output: false (0)

Input: Hello, I am checking results. What call was entered for O=C1CCc2c(sc3[nH]c(=S)n(-c4cc(C(F)(F)F)cc(C(F)(F)F)c4)c(=O)c23)C1 ?
Output: false (0)

Input: Hello, I am checking results. What call was entered for COc1cc(C(=O)c2c(-c3ccccc3)oc3ccccc23)cc(OC)c1O ?
Output: false (0)

====

Listed next: entries and their corresponding growth.
System: SN12C renal
Test: NCI-60 one-dose screen, 48 h (100 = growth as untreated, 0 = no growth, -100 = all killed)
Details: 10 µM unless noted
The panel holds about 83,000 compounds, 20% with a hit somewhere; the sample as a whole holds those more often.
# output: bare number, implied unit %

Oc1ccc(C(c2ccc(O)cc2)c2ccc(Cl)cn2)cc1 : 6.15
CC(C)CCc1nc2ccc(NCc3ccc(OCCN4CCC(C)CC4)cc3)cc2[nH]1 : 69.9
O=C1/C(=C/c2cccc([N+](=O)[O-])c2)COc2ccc(O)c(O)c21 : -71.3
CN1CCN(Cc2ccc(NC(=O)c3cncc(C#Cc4cnc(N)c5ncccc45)c3)cc2Cl)CC1 : 92.5
C#CC#CC#CC#CC#CC#CC#CC#CC[C@@H]1OC[C@H](COC(=O)O[C@@H](C(=O)O[C@H]2C[C@@]3(O)[C@@H](OC(=O)c4ccccc4)[C@@H]4[C@]5(OC(C)=O)CO[C@@H]5C[C@H](O)[C@@]4(C)C(=O)[C@H](OC(C)=O)C(=C2C)C3(C)C)[C@@H](NC(=O)c2ccccc2)c2ccccc2)O1 : 38.6

Input: Value lookup for growth; key = C#CCOc1cccc(-c2ncnc3cc(NC(=O)CCl)ccc23)c1
Output: -65.8

Input: Value lookup for growth; key = CO[C@H]1CC(c2ccc[nH]2)=N[C@]12O[C@@H](C)C[C@@H]1CCCCCCCc3ccc([nH]3)[C@H]12
Output: 33.6
